# reported Km; entries follow
System: Escherichia coli
protocol-text: Activity of Escherichia coli beta-lactamase Toho-1 F160T mutant assessed as compound hydrolysis by spectrophotometry
observable: Km (µM)

INSERT INTO assay_data (mol_smiles, result) VALUES
  ('CC1(C)S[C@@H]2[C@H](NC(=O)[C@H](N)c3ccccc3)C(=O)N2[C@H]1C(=O)O', 26),
  ('CO/N=C(\C(=O)N[C@@H]1C(=O)N2C(C(=O)O)=C(COC(C)=O)CS[C@H]12)c1csc(N)n1', 360),
  ('CC(=O)OCC1=C(C(=O)O)N2C(=O)[C@@H](NC(=O)Cc3cccs3)[C@H]2SC1', 170),
  ('C[C@H]1[C@H](NC(=O)/C(=N\OC(C)(C)C(=O)O)c2csc(N)n2)C(=O)N1S(=O)(=O)O', 69),
  ('CO/N=C(\C(=O)N[C@@H]1C(=O)N2C(C(=O)O)=C(CSc3cnns3)CS[C@H]12)c1csc(N)n1', 220),
  ('O=C(Cc1cccs1)N[C@@H]1C(=O)N2C(C(=O)[O-])=C(C[n+]3ccccc3)CS[C@H]12', 430);
